# TESTED TARGET: Non-receptor tyrosine-protein kinase TYK2 (Mus musculus)
# Sequence (Q9R117 whole entry): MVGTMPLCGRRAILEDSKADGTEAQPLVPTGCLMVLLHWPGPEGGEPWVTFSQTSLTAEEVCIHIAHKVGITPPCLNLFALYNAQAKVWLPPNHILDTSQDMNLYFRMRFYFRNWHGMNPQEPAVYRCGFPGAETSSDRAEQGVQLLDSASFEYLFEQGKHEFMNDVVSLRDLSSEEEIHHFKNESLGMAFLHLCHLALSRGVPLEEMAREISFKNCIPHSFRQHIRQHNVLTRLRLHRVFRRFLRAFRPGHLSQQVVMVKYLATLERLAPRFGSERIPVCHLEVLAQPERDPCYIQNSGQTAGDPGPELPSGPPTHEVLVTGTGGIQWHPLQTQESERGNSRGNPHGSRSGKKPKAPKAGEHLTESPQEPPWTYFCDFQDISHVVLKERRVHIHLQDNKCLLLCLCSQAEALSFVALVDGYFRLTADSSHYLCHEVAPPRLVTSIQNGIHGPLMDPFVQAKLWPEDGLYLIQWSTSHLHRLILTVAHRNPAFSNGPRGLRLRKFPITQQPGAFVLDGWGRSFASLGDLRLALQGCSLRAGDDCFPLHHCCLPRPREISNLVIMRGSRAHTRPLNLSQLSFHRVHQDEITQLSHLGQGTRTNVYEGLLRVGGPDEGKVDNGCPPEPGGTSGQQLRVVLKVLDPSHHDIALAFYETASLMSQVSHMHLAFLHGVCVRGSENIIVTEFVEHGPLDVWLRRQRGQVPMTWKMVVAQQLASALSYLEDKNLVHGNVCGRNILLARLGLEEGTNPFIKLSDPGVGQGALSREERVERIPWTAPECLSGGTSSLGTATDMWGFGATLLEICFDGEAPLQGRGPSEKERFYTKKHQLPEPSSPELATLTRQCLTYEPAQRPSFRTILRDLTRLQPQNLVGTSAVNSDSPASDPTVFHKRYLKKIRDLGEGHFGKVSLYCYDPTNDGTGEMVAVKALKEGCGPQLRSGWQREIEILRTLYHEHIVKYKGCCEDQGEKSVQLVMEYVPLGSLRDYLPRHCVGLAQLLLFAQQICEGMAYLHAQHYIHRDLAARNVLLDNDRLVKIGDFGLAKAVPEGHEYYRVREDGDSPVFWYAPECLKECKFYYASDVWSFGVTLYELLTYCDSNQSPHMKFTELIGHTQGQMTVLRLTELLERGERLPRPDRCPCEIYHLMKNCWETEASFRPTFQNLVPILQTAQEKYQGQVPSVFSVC
# METHOD SUMMARY: Inhibition of TYK2 in C57/B6 mouse whole blood assessed as decrease in STAT4 phosphorylation preincubated for 30 mins followed by mouse IL-12p70 stimulation and measured after 20 mins by flow cytometry
QUANTITY: EC50 (nM)
Give bare numbers, in nM.

input: Please give the measured EC50 for this compound: `COCc1cc(-c2cn(C3COC3)c3cnc(NC(C)=O)cc23)nc([C@]2(OC)CCOC2)c1`
output: 1400

====

# METHOD SUMMARY: AUC (0 to infinity) in cynomolgus monkey at 1 mg/kg,po
# Type: ADME, organism-based, Macaca fascicularis
# Parameters: dose 1 mg/kg, route po
# TEST PARAMETERS: in vivo
QUANTITY: AUC(0-inf) (ng·h/mL)
Answers are plain numbers, in ng·h/mL.

input: Would you mind telling me what AUC(0-inf) value was observed for `COCc1cc(-c2cn(C3COC3)c3cnc(NC(C)=O)cc23)nc([C@]2(OC)CCOC2)c1` ?
output: 80

====

# METHOD SUMMARY: Oral bioavailability in rat at 1 mg/kg
# Type: ADME, organism-based
# TEST PARAMETERS: in vivo
Could you please report measured bioavailability for the items listed next?
Give bare numbers, in %.

Previously resolved entries follow.
input: So what does the record say about bioavailability for `COCc1cc(-c2cn(C3COC3)c3cnc(NC(C)=O)cc23)nc([C@]2(OC)CCOC2)c1` ?
output: 19

input: Also check `CO[C@@]1(c2cc(O[C@@H](C)CCO)cc(-c3cn(C)c4cnc(NC(C)=O)cc34)n2)CCOC1`
output: 16

Next molecule, please.
input: Reported bioavailability, molecule `CO[C@@]1(c2cc(OCC[C@@H](C)O)cc(-c3cn(C)c4cnc(NC(C)=O)cc34)n2)CCOC1` : ____
output: 26

====

# TESTED TARGET: Non-receptor tyrosine-protein kinase TYK2 (Homo sapiens, UniProt P29597)
# Sequence (P29597 whole entry): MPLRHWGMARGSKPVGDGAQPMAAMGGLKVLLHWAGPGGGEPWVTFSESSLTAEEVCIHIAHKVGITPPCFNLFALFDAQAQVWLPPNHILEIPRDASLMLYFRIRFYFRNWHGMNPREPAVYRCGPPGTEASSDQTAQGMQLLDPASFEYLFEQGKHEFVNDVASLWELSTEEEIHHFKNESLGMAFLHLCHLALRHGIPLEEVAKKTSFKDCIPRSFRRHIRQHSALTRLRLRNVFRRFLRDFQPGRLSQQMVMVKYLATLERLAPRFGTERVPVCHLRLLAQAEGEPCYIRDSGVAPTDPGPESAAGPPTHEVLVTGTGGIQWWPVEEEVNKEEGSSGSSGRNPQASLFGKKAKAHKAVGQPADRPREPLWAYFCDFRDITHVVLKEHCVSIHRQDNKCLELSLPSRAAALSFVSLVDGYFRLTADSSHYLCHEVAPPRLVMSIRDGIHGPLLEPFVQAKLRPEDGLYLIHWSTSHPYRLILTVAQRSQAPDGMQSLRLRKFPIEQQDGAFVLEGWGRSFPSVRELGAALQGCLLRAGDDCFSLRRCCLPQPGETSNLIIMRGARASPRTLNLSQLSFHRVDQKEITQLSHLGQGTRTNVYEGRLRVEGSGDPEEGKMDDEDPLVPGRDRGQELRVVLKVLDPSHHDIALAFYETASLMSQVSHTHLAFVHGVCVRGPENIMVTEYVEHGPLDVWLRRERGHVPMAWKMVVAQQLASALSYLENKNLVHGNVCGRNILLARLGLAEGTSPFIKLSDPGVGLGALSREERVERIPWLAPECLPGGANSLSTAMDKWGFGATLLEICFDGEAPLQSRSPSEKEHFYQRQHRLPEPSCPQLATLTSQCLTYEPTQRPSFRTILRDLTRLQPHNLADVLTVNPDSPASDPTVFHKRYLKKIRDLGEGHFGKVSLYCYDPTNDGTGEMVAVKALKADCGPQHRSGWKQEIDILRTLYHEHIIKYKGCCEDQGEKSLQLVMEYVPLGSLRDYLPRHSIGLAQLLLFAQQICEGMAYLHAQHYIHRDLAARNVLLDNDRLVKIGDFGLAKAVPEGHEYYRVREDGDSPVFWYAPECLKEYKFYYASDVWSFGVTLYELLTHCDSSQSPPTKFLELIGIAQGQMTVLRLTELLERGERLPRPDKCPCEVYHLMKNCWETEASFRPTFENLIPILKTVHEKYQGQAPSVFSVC
# METHOD SUMMARY: Inhibition of TYK2 in human T-blast cells assessed as IL-12 induced STAT4 phosphorylation at Tyr694 residue preincubated for 30 mins followed by IL-12 stimulation and measured after 20 mins by AlphaScreen assay
# Type: cell-based, T-blast cell
pEC50: −log10 of the molar value.
Use 1.0 when the recorded pEC50 is no lower than 7; use 0.0 when it is lower.

input: Could you verify whether the entry `CO[C@]1(c2cccc(-c3cn(C)c4cnc(NC(C)=O)cc34)n2)CCOC1` shows pEC50 of no less than 7?
output: 0.0

input: Okay, and `CC(=O)Nc1cc2c(-c3cccc(S(=O)(=O)N(C)C)c3)cn(C)c2cn1` ?
output: 1.0

input: // repeat for `COCCOc1cc(-c2cn(C)c3cnc(NC(C)=O)cc23)nc([C@]2(OC)CCOC2)c1` and report
output: 1.0

Okay, next one:
input: Could you tell me if the measured pEC50 of `CC(=O)Nc1cc2c(-c3cccc(S(=O)(=O)C4COC4)n3)cn(C)c2cn1` reaches 7 or more?
output: 0.0

====

# METHOD SUMMARY: Thermodynamic solubility in PBS at pH 7.4
# Format: physicochemical
# TEST PARAMETERS: read-out: Therm_solubility
QUANTITY: log10 of solubility thermodynamic (log10 of the value in µM)
Heads up, the numbers here are log10 of solubility thermodynamic in µM units.

Look over these answered cases.
input: Tell me the measured log10 of solubility thermodynamic of `CC(=O)Nc1cc2c(-c3cccc(S(=O)(=O)N(C)C)c3)cn(C)c2cn1` , please.
output: 0.51

input: Ok, now `CO[C@@]1(c2cccc(-c3cn(C)c4cnc(NC(C)=O)cc34)n2)CCOC1`
output: 1.30

input: // next record `CC(=O)Nc1cc2c(-c3cccc(S(=O)(=O)N(C)C)c3)c[nH]c2cn1`
output: 0.08

State the recorded log10 of solubility thermodynamic for every item in the following list.
1. CC(=O)Nc1cc2c(-c3cccc(S(=O)(=O)N(C)C)n3)cn(C)c2cn1
2. COCc1cc(-c2cn(C3COC3)c3cnc(NC(C)=O)cc23)nc([C@]2(OC)CCOC2)c1
3. CO[C@@]1(c2cc(O[C@@H](C)CCO)cc(-c3cn(C)c4cnc(NC(C)=O)cc34)n2)CCOC1
4. CO[C@]1(c2cccc(-c3cn(C)c4cnc(NC(C)=O)cc34)n2)CCOC1

output:
0.38
2.85
2.28
1.46

Can you give me log10 of solubility thermodynamic for all of these, one by one?
1. CO[C@@]1(c2cc(OCC[C@@H](C)O)cc(-c3cn(C)c4cnc(NC(C)=O)cc34)n2)CCOC1
2. CO[C@@]1(c2cccc(-c3cn(C)c4cnc(NC(N)=O)cc34)n2)CCOC1

output:
1. 2.02
2. 1.20

====

# METHOD SUMMARY: AUC (0 to infinity) in dog at 0.5 mg/kg,po
# Format: ADME, organism-based, Canis lupus familiaris
# Parameters: dose 0.5 mg/kg, route po
# TEST PARAMETERS: in vivo
QUANTITY: AUC(0-inf) (ng·h/mL)
Numbers only, in ng·h/mL.

input: # input molecule: `CO[C@@]1(c2cc(O[C@@H](C)CCO)cc(-c3cn(C)c4cnc(NC(C)=O)cc34)n2)CCOC1` ; wanted: its AUC(0-inf)
output: 300

====

# TESTED TARGET: CYP3A4 (Homo sapiens, UniProt P08684)
# Sequence (P08684 whole entry): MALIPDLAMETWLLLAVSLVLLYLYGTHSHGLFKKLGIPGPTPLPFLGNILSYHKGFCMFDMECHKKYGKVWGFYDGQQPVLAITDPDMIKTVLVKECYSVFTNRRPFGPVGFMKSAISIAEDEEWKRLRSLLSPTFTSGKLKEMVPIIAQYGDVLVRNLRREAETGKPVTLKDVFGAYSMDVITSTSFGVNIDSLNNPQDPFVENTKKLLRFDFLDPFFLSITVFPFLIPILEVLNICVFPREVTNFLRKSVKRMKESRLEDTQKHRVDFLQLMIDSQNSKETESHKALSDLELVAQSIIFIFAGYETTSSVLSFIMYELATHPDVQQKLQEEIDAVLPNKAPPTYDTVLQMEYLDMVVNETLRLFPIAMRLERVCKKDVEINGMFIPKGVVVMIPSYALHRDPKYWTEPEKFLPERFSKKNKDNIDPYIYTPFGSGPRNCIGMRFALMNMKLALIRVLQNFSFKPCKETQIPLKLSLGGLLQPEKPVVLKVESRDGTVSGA
# METHOD SUMMARY: Induction of CYP3A4 in human hepatocytes assessed as fold increase in mRNA level at 10 uM incubated for 24 hrs by RT-qPCR analysis relative to control
# Assay type: ADME, cell-based, Hepatocyte
# TEST PARAMETERS: read-out: FC
Kindly state fold induction at 24 h, 10 µM for each of the entries shown.
One number for each entry.

See these solved cases before continuing.
input: Entry `CO[C@@]1(c2cc(OC(F)F)cc(-c3cn(C)c4cnc(NC(C)=O)cc34)n2)CCOC1` , system CYP3A4 (Homo sapiens, UniProt P08684): what fold induction at 24 h, 10 µM was measured?
output: 6

input: And for `CO[C@@]1(c2cc(C#N)cc(-c3cn([C@@H]4CC4(F)F)c4cnc(NC(C)=O)cc34)n2)CCOC1` ?
output: 13

input: Entry `CO[C@@]1(c2cc(O[C@@H](C)CCO)cc(-c3cn(C)c4cnc(NC(C)=O)cc34)n2)CCOC1` please
output: 1.8

input: Quick one: `COc1cc(-c2cn(C3COC3)c3cnc(NC(C)=O)cc23)nc([C@]2(OC)CCOC2)c1`
output: 13

input: Please do the same for `CO[C@@]1(c2cc(C(F)F)cc(-c3cn(C)c4cnc(NC(C)=O)cc34)n2)CCOC1` as well.
output: 7.7

For each of the items listed, what is its fold induction at 24 h, 10 µM?
1. COCCOc1cc(-c2cn(C)c3cnc(NC(C)=O)cc23)nc([C@]2(OC)CCOC2)c1
2. COCc1cc(-c2cn(C3COC3)c3cnc(NC(C)=O)cc23)nc([C@]2(OC)CCOC2)c1
3. CO[C@@]1(c2cc(OCC[C@@H](C)O)cc(-c3cn(C)c4cnc(NC(C)=O)cc34)n2)CCOC1

output:
[4, 1.5, 2.6]

====

# TESTED TARGET: Tyrosine-protein kinase JAK1 (Homo sapiens, UniProt P23458)
# Sequence (P23458 whole entry): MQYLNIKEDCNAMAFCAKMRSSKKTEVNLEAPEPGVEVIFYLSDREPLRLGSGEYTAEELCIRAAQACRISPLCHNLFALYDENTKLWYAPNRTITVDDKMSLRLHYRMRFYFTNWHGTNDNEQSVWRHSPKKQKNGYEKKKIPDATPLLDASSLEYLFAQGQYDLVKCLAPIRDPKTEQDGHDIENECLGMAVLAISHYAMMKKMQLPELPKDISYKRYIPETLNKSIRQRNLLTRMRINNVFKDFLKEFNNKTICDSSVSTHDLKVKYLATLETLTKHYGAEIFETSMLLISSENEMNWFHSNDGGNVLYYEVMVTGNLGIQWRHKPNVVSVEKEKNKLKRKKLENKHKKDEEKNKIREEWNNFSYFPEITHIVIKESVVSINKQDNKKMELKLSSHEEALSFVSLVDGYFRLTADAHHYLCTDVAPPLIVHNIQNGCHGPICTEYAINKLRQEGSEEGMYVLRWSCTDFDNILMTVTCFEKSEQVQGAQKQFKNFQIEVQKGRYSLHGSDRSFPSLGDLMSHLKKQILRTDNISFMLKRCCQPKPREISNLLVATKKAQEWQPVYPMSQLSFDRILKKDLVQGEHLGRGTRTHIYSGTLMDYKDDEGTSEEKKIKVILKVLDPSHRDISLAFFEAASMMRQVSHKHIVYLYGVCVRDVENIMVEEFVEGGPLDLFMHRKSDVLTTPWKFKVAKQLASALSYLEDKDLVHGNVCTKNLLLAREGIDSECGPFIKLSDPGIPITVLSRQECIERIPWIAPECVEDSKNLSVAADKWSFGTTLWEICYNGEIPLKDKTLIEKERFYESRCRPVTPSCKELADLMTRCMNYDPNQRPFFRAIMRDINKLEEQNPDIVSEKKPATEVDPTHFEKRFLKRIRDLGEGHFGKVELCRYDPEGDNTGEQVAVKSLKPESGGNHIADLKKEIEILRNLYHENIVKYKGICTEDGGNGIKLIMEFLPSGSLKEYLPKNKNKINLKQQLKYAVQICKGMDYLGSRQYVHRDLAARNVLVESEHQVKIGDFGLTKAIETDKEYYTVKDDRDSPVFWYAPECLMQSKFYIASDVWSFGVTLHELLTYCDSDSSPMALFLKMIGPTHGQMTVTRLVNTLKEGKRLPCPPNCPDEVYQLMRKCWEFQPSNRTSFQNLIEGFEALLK
# METHOD SUMMARY: Inhibition of JAK1 in human TF-1 cells assessed as reduction in IL-6 induced STAT3 phosphorylation at Tyr705 residue preincubated for 30 mins followed by IL-6 stimulation and measured after 30 mins by AlphaScreen assay
// assign 1 if EC50 falls strictly below 10 µM, else 0 (ties count as 0)

Examples with answers:
input: Item `CC(=O)Nc1cc2c(-c3cccc(S(=O)(=O)C4COC4)n3)cn(C)c2cn1` : EC50 beneath 10 µM, strictly?
output: 0

input: Can you handle `CO[C@@]1(c2cc(O[C@@H](C)CCO)cc(-c3cn(C)c4cnc(NC(C)=O)cc34)n2)CCOC1` next?
output: 0

input: And the next one, `CO[C@@]1(c2cc(OCC[C@@H](C)O)cc(-c3cn(C)c4cnc(NC(C)=O)cc34)n2)CCOC1` ?
output: 0

input: Another: `CCS(=O)(=O)c1cccc(-c2cn(C)c3cnc(NC(C)=O)cc23)n1`
output: 0

input: Param item: `CC(=O)Nc1cc2c(-c3cccc(S(=O)(=O)N(C)C)n3)cn(C)c2cn1`
output: 1

input: Try this compound too: `COCc1cc(-c2cn(C3COC3)c3cnc(NC(C)=O)cc23)nc([C@]2(OC)CCOC2)c1`
output: 0

input: Same question for `CC(=O)Nc1cc2c(-c3cccc(S(=O)(=O)N(C)C)c3)c[nH]c2cn1` please.
output: 0

input: Now give it for `CC(=O)Nc1cc2c(-c3cccc(S(=O)(=O)N(C)C)c3)cn(C)c2cn1` too.
output: 1

Now, please, on to the next compound.
input: Item `CN(C)S(=O)(=O)c1cccc(-c2c[nH]c3cnc(NC(=O)C4CC4)cc23)c1` : EC50 beneath 10 µM, strictly?
output: 0
